- study target: CYP1A2 (Homo sapiens)
- Sequence (P05177 whole entry): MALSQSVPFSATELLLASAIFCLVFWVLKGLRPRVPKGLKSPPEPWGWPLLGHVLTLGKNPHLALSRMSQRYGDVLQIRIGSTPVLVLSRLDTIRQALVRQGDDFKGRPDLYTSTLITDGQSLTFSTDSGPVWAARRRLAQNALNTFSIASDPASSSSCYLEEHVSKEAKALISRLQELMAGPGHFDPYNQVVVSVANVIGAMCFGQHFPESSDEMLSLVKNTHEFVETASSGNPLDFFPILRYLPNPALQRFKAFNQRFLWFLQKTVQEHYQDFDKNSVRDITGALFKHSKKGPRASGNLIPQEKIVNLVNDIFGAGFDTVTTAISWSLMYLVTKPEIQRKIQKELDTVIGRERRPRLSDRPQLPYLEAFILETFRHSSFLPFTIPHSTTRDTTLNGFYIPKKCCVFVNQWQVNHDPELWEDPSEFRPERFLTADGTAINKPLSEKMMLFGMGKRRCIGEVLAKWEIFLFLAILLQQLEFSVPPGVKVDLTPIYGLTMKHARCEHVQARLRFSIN
- protocol: Inhibition of CYP1A2 at 3 uM
- Type: ADME
Here, each record is paired with measured inhibition at 3 µM data.
Give the value in % but do not write % after it.

Before answering, review these 4 worked examples.
NC(=O)c1n[nH]c(-c2nc(Cc3ccccc3F)c3ccccn23)n1 : 16
Fc1ccccc1Cc1nc(-c2nc(C(F)F)n[nH]2)n2ccccc12 : 49
Cc1ncc(Cc2nc(-c3nc(C(F)(F)F)n[nH]3)n3cccc(F)c23)cn1 : 15
Fc1ccccc1Cc1nc(-c2nc(C(F)(F)F)n[nH]2)n2ccccc12 : 57

Please turn your attention to the following entry.
Data request: Return value of inhibition at 3 µM for input `Fc1ccccc1Cc1nc(-c2nc(C(F)(F)F)n[nH]2)n2cccnc12` , no commentary.
Data returned: 17

====

- protocol: Apparent permeability from apical to basolateral side in dog RRCK cells
- Assay type: ADME, cell-based, Canis lupus familiaris, MDCKII-LE
- assay setup: MDCK
measured metric: Papp A→B (×10⁻⁶ cm/s)
Supply the numeric figure in ×10⁻⁶ cm/s, leaving out any unit text.

Recorded Papp A→B, per entry:
Fc1ccccc1Cc1nc(-c2nc(Cc3ccccc3)n[nH]2)n2ccccc12 : 0.5
NC(=O)c1n[nH]c(-c2nc(Cc3ccccc3F)c3ccccn23)n1 : 13
Fc1ccccc1Cc1nc(-c2nc(C(F)(F)F)n[nH]2)n2ccccc12 : 6
Fc1ccccc1Cc1nc(-c2ncn[nH]2)n2ccccc12 : 8
Fc1ccccc1Cc1nc(-c2nc(C(F)(F)F)n[nH]2)n2cccnc12 : 28
Cc1n[nH]c(-c2nc(Cc3ccccc3F)c3ccccn23)n1 : 1

Data request: Complete the entry with Papp A→B for `Cc1ncc(Cc2nc(-c3nc(C(F)(F)F)n[nH]3)n3ccccc23)cn1`
Data returned: 27

Data request: Give the value of Papp A→B reported for the following: `Fc1ccccc1Cc1nc(-c2nc(C(F)(F)C(F)(F)F)n[nH]2)n2ccccc12`
Data returned: 3

====

- protocol: Clearance in rat at 2 mg/kg, iv
- Format: ADME, organism-based
- Set-up: dose 2 mg/kg, route intravenous
- assay setup: in vivo
Catalogue of clearance values

Fc1ccccc1Cn1nc(-c2nc(C(F)(F)F)n[nH]2)c2cccnc21 : 8 mL/min/kg

Continue with the next molecule.
Data request: Provide measured clearance value, entry: `FC(F)(F)c1n[nH]c(-c2nc(Cc3cncnc3)c3ccccn23)n1`
Data returned: 9.9 mL/min/kg

====

Readings of EC20 for the listed molecules
- study target: Soluble guanylate cyclase (Homo sapiens) (UniProt Q02153+O75343+P33402+Q02108)
- protocol: Activation of human soluble guanylate cyclase assessed as production of cGMP in presence of nitric oxide donor, SIN-1 by FP assay
- Assay type: protein-complex assay
Quick note: give the figure in nM, leave out the unit.

Consider the following illustrative entries.
Fc1ccccc1Cc1nc(-c2nc(Cc3ccccc3)n[nH]2)n2ccccc12 : 554
Fc1ccccc1Cc1nc(-c2nc(C(F)(F)F)n[nH]2)n2cccnc12 : 221
Cc1ncc(Cc2nc(-c3nc(C(F)(F)F)n[nH]3)n3ccccc23)cn1 : 245
Cc1ncc(Cc2nc(-c3nc(C(F)(F)F)n[nH]3)n3cccc(F)c23)cn1 : 73
Fc1ccccc1Cc1nc(-c2nc(C(F)(F)F)n[nH]2)n2ccccc12 : 281

Then there is this molecule:
Data request: Please give measured EC20 of the following entry: `Nc1nc(-c2nn(Cc3ccccc3F)c3ncccc23)nc(N)c1N1CCOCC1`
Data returned: 11

====

- protocol: Octanol-buffer partition coefficient, log D of the compound at pH 7.4
- Assay type: physicochemical
measured metric: logD

NC(=O)c1n[nH]c(-c2nc(Cc3ccccc3F)c3ccccn23)n1 : 2.8
CS(=O)(=O)c1n[nH]c(-c2nc(Cc3ccccc3F)c3ccccn23)n1 : 1.2
Cc1n[nH]c(-c2nc(Cc3ccccc3F)c3ccccn23)n1 : 3.3
Nc1nc(-c2nn(Cc3ccccc3F)c3ncccc23)nc(N)c1N1CCOCC1 : 3.1

Let us move to another entry and its logD.
Data request: For `FC(F)(F)c1n[nH]c(-c2nc(Cc3cncnc3)c3ccccn23)n1` , write its logD.
Data returned: 1.8

====

- protocol: Apparent permeability of the compound by PAMPA assay
- Format: ADME
measured metric: Papp (×10⁻⁶ cm/s)
I only need the number, in ×10⁻⁶ cm/s, no unit after it.

Data request: Consider the molecule `Cc1ncc(Cn2nc(-c3nc(C(F)(F)F)n[nH]3)c3cccnc32)cn1` . State its measured Papp.
Data returned: 27

====

Listed here are molecules together with their documented bioavailability.
- protocol: Oral bioavailability in rat at 2 mg/kg
- Type: ADME, organism-based
- assay setup: in vivo

FC(F)(F)c1n[nH]c(-c2nc(Cc3cncnc3)c3ccccn23)n1 : 61%

Data request: Fill in reported bioavailability for this entry: `Fc1ccccc1Cn1nc(-c2nc(C(F)(F)F)n[nH]2)c2cccnc21`
Data returned: 66%

====

- protocol: Apparent permeability from apical to basolateral side in dog RRCK cells
- Assay type: ADME, cell-based, Canis lupus familiaris, MDCKII-LE
- assay setup: MDCK
Exam item: assign Satisfied to entries whose Papp A→B is below 200 nm/s and Not satisfied to entries at or above 200 nm/s. Note that a value of exactly 200 nm/s receives Not satisfied.

FC(F)(F)c1n[nH]c(-c2nc(Cc3cncnc3)c3ccccn23)n1 : Satisfied
Fc1ccccc1Cc1nc(-c2nc(C(F)F)n[nH]2)n2ccccc12 : Satisfied

Data request: Does this compound meet the criterion Papp A→B < 200 nm/s? `Cc1ncc(Cc2nc(-c3nc(C(F)(F)F)n[nH]3)n3cccc(F)c23)cn1`
Data returned: Not satisfied

Data request: Threshold test, Papp A→B < 200 nm/s: `Fc1ccccc1Cc1nc(-c2nc(C(F)(F)F)n[nH]2)c2ccccn12`
Data returned: Satisfied

Data request: Strictly below 200 nm/s in Papp A→B? `OCc1ccc(-c2nn(Cc3ccccc3)c3ccccc23)o1`
Data returned: Satisfied

====

- protocol: Intrinsic clearance in human liver microsomes assessed per mg of protein
- Format: ADME, Microsome
Assign y whenever microsomal CLint does not fall below 60 µL/min/mg; assign n whenever it does.

Fc1ccccc1Cc1nc(-c2nc(C(F)(F)C(F)(F)F)n[nH]2)n2ccccc12 : y

Data request: Does the reported microsomal CLint for `NC(=O)c1n[nH]c(-c2nc(Cc3ccccc3F)c3ccccn23)n1` fall at or above the 60 µL/min/mg mark?
Data returned: n

Data request: Record `CS(=O)(=O)c1n[nH]c(-c2nc(Cc3ccccc3F)c3ccccn23)n1` ; criterion: microsomal CLint no lower than 60 µL/min/mg. Met?
Data returned: n

Data request: Does `Cc1n[nH]c(-c2nc(Cc3ccccc3F)c3ccccn23)n1` have a reported microsomal CLint of at least 60 µL/min/mg?
Data returned: y

Data request: Hi team, for `FC(F)(F)c1n[nH]c(-c2nc(Cc3cncnc3)c3ccccn23)n1` , is the recorded microsomal CLint at or above 60 µL/min/mg?
Data returned: n

Data request: Reported microsomal CLint reaches at least 60 µL/min/mg for `Fc1ccccc1Cc1nc(-c2nc(C(F)(F)F)n[nH]2)n2cccnc12` ?
Data returned: n

Data request: I'd appreciate it if you could say whether `Fc1ccccc1Cn1nc(-c2nc(C(F)(F)F)n[nH]2)c2cccnc21` has microsomal CLint at least equal to 60 µL/min/mg.
Data returned: n

Data request: Say whether `Fc1ccccc1Cc1nc(-c2nc(C(F)(F)F)n[nH]2)c2ccccn12` shows microsomal CLint of 60 µL/min/mg or more.
Data returned: n

Data request: Does the reported microsomal CLint for `Fc1ccccc1Cc1nc(-c2ncn[nH]2)n2ccccc12` fall at or above the 60 µL/min/mg mark?
Data returned: y

Data request: Evaluate `Fc1ccccc1Cc1nc(-c2nc(C(F)F)n[nH]2)n2ccccc12` : microsomal CLint at minimum 60 µL/min/mg?
Data returned: y

====

- protocol: Octanol-buffer partition coefficient, log D of the compound at pH 7.4
- Type: physicochemical
Collected logD values appear next to each entry.
Form field (numeric): enter value without unit.

Fc1ccccc1Cc1nc(-c2nc(C(F)F)n[nH]2)n2ccccc12 : 3.8
Fc1ccccc1Cc1nc(-c2nc(C(F)(F)C(F)(F)F)n[nH]2)n2ccccc12 : 4.2
Cc1ncc(Cc2nc(-c3nc(C(F)(F)F)n[nH]3)n3cccc(F)c23)cn1 : 2
Fc1ccccc1Cc1nc(-c2nc(C(F)(F)F)n[nH]2)c2ccccn12 : 3.9
OCc1ccc(-c2nn(Cc3ccccc3)c3ccccc23)o1 : 3.7

Data request: Please look at this molecule and report its logD: `Fc1ccccc1Cc1nc(-c2ncn[nH]2)n2ccccc12`
Data returned: 3.3

Data request: Output logD of `Cc1ncc(Cc2nc(-c3nc(C(F)(F)F)n[nH]3)n3ccccc23)cn1`
Data returned: 2.1

Data request: Fill in reported logD for this entry: `Fc1ccccc1Cc1nc(-c2nc(C(F)(F)F)n[nH]2)n2cccnc12`
Data returned: 2.5

Data request: Quickly give me recorded logD for `Fc1ccccc1Cn1nc(-c2nc(C(F)(F)F)n[nH]2)c2cccnc21`
Data returned: 3.2

Data request: Read off the recorded logD for `Fc1ccccc1Cc1nc(-c2nc(C(F)(F)F)n[nH]2)n2ccccc12`
Data returned: 3.8
